Target or system: Glucocorticoid receptor (Homo sapiens)
Protocol text: qHTS assay to identify small molecule agonists of the glucocorticoid receptor (GR) signaling pathway (AID 720691)
Test conditions: GR-bla HeLa, beta-lactamase reporter ratio, 18 h; series mostly up to 62.4 µM
Records with an inconclusive call do not appear. Calls of active or inactive are those of the source. Calls follow the shape of the dose curve; as a rule, active = well fitted activation curve with a large enough effect in the signal ratio in the repeat runs (not every such curve was filed as active); inconclusive = weak or mixed curves, or effect the other way; inactive = no such curve, though single readings can be large or run the other way; the % refers to the signal ratio.
Experimental readout: outcome

[[record]]
molecule = "CC(C)OP(=O)(CP(=O)(OC(C)C)OC(C)C)OC(C)C"
value = "inactive"

[[record]]
molecule = "CC(CCO)CC(C)(C)C (centres undefined)"
value = "inactive"

[[record]]
molecule = "CC(CCl)OP(=O)(OC(C)CCl)OC(C)CCl (centres undefined)"
value = "inactive"

[[record]]
molecule = "CC(C)(C#N)c1cc(Cn2cncn2)cc(C(C)(C)C#N)c1"
value = "inactive"

[[record]]
molecule = "CC(=O)CCC=C(C)C"
value = "inactive"

[[record]]
molecule = "CC(C)(C)c1cc(Cc2cc(C(C)(C)C)c(O)c(C(C)(C)C)c2)cc(C(C)(C)C)c1O"
value = "inactive"

[[record]]
molecule = "CCO[Si](CCCN)(OCC)OCC"
value = "inactive"

[[record]]
molecule = "COC(=O)c1cccnc1"
value = "inactive"

[[record]]
molecule = "C=C(C)CNCC"
value = "inactive"

[[record]]
molecule = "O=C(O)c1ccc(S(=O)(=O)N(Cl)Cl)cc1"
value = "inactive"

[[record]]
molecule = "CN/C(=C\\[N+](=O)[O-])NCCSCc1csc(CN(C)C)n1"
value = "inactive"

[[record]]
molecule = "O=c1[nH]cnc2[nH]ncc12"
value = "inactive"

[[record]]
molecule = "Cc1ccc(S(=O)(=O)N=C=O)cc1"
value = "inactive"

[[record]]
molecule = "CCOC(=O)c1ccc(N)cc1"
value = "inactive"

[[record]]
molecule = "CCc1ccccc1CC"
value = "inactive"

[[record]]
molecule = "N#Cc1ccccc1"
value = "inactive"

[[record]]
molecule = "CN(C)CCOC(=O)COc1ccc(Cl)cc1"
value = "inactive"

[[record]]
molecule = "O=S(=O)(O)c1ccccc1"
value = "inactive"

[[record]]
molecule = "CC1(C)CC(N)CC(C)(CN)C1 (centres undefined)"
value = "inactive"

[[record]]
molecule = "O=C(O)c1ccccc1C(=O)O"
value = "inactive"

[[record]]
molecule = "O=C1CCCC1"
value = "inactive"

[[record]]
molecule = "CCCCCCCCCCCCCCCCO"
value = "inactive"

[[record]]
molecule = "CCOCC(=O)O"
value = "inactive"

[[record]]
molecule = "CC(=O)Oc1ccc(C)cc1"
value = "inactive"

[[record]]
molecule = "CNC(=S)N(C)C"
value = "inactive"

[[record]]
molecule = "O=C1C(c2[nH]c3ccccc3c2O)=Nc2ccccc21"
value = "inactive"

[[record]]
molecule = "CC1(C)NC(=O)NC1=O"
value = "inactive"

[[record]]
molecule = "O=C(O)c1cc2ccccc2cc1O"
value = "inactive"

[[record]]
molecule = "Cc1ccc([N+](=O)[O-])cc1S(=O)(=O)O"
value = "inactive"

[[record]]
molecule = "CCO[Si](CCC#N)(OCC)OCC"
value = "inactive"

[[record]]
molecule = "CCCCCCCO"
value = "inactive"

[[record]]
molecule = "C=C(C)[C@H]1CC=C(C)C(=O)C1"
value = "inactive"

[[record]]
molecule = "CC(C)c1cccc(C(C)C)c1"
value = "inactive"

[[record]]
molecule = "CC1(C)S[C@@H]2[C@H](NC(=O)COc3ccccc3)C(=O)N2[C@H]1C(=O)O"
value = "inactive"

[[record]]
molecule = "CSc1ccc(Cl)cc1"
value = "inactive"

[[record]]
molecule = "N[C@H](Cc1c[nH]c2ccccc12)C(=O)O"
value = "inactive"

[[record]]
molecule = "CCCCCCCCCCO"
value = "inactive"

[[record]]
molecule = "C=CCCCCCCCCC(=O)O"
value = "inactive"

[[record]]
molecule = "CC(=O)OC1CC(C)OC(C)O1 (centres undefined)"
value = "inactive"

[[record]]
molecule = "OCc1ccccc1"
value = "inactive"

[[record]]
molecule = "CCCCCCO"
value = "inactive"

[[record]]
molecule = "COc1cc(OC)c(C(=O)CCCN2CCCC2)c(OC)c1"
value = "inactive"

[[record]]
molecule = "CC(=O)OCCOC(C)=O"
value = "inactive"

[[record]]
molecule = "C=CCc1ccc(OC)c(OC)c1"
value = "inactive"

[[record]]
molecule = "O=S(=O)(O)c1ccc(N=Nc2c(O)ccc3cc(S(=O)(=O)O)ccc23)cc1"
value = "inactive"

[[record]]
molecule = "CC(C)CC(=O)CC(C)CC(C)C (centres undefined)"
value = "inactive"

[[record]]
molecule = "Nc1nc(N)nc(-c2ccccc2)n1"
value = "inactive"

[[record]]
molecule = "c1ccc(Oc2ccccc2)cc1"
value = "inactive"

[[record]]
molecule = "c1ccc2c(c1)Cc1ccccc1-2"
value = "inactive"

[[record]]
molecule = "CN(C)c1ccc(O)c2c1C[C@H]1C[C@H]3[C@H](N(C)C)C(=O)C(C(N)=O)=C(O)[C@@]3(O)C(=O)C1=C2O"
value = "inactive"

[[record]]
molecule = "CCCOC(=O)c1ccccc1"
value = "inactive"

[[record]]
molecule = "CC(=O)c1ccc(O)cc1"
value = "inactive"

[[record]]
molecule = "COCCCN"
value = "inactive"

[[record]]
molecule = "CC(C)OC(=O)COc1ccc(Cl)cc1Cl"
value = "inactive"

